Origin of measurements: patent US7482341B2

Target: 11beta-HSD1 (Homo sapiens, UniProt P28845)
Sequence (P28845 whole entry): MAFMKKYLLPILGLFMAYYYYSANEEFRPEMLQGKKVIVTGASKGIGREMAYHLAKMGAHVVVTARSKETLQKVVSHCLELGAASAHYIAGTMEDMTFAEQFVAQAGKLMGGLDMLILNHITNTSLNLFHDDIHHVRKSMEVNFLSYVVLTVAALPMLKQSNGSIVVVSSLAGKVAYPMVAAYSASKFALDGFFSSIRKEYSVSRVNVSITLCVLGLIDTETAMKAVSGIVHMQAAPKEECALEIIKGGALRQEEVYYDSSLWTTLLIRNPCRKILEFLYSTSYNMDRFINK
Experiment: Microsome assay (cortisone to cortisol, ELISA)
Settings: microsomes from HEK293 cells transiently expressing human 11beta-HSD1; 60 min, 37° C.; cortisol production 50% reduced; read-out: h 11-beta-HSD 1 IC50
pIC50: −log10 of the molar value.
Assay Endpoint: pIC50

{"columns": ["Compound", "Tested System", "Numeric Readout"],
 "data": [
  ["Cc1c(Cl)cccc1S(=O)(=O)Nc1ccc(Oc2ccc(F)cc2)cn1", "11beta-HSD1 (Homo sapiens, UniProt P28845)", 8.30],
  ["O=S(=O)(Nc1cccc(COCc2ccc(F)cc2)n1)c1ccc(F)cc1", "11beta-HSD1 (Homo sapiens, UniProt P28845)", 7.80]
]}
